Target: BACE1 (Homo sapiens (Human), UniProt P56817)
Sequence (P56817 46-501): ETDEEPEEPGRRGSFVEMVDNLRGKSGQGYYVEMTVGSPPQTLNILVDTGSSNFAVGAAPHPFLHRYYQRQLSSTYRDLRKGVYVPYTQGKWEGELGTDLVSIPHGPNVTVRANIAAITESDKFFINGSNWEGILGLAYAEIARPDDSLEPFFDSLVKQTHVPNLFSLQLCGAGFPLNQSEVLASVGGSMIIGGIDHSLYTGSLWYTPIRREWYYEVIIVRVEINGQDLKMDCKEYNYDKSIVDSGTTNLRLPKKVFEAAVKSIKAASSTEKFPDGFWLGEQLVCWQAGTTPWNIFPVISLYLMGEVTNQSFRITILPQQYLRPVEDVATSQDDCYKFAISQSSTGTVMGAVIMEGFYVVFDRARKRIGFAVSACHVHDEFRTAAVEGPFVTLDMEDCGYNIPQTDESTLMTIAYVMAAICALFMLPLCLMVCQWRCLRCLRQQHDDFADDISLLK
Assay Text: in vitro BACE inhibition assay (Primary BACE1 IC50)
Type: biochemical
Experimental Parameters: Table 3; read-out: IC50
Readout Kind: IC50

Query: Give its IC50 value. Item: COCc1cccc(C2(c3ccc(OC(F)F)c(C)c3)N=C(N)N(C)C2=O)c1 (stereo not shown)
Response: ~250 nM

###

System: CHO-7W cells that were stably transfected with human APP (wildtype)
Assay Text: Secondary cell-based test of APP processing (sAPPalpha, sAPPbeta, Abeta 1-42)
Experimental Parameters: Secondary (1st test, n = 3); ↓ decrease
Readout Kind: Abeta 1-42

# Molecule, Abeta 1-42
rows = [
    ("Cc1cc(C2(c3ccnc(F)c3)N=C(N)N(C)C2=O)ccc1OC(F)F (centres unmarked) [FAH-46]", "↓>20%"),
    ("Cc1cc(F)cc(C2(c3ccc(OC(F)F)c(C)c3)N=C(N)N(C)C2=O)c1 (centres unmarked) [FAH-22]", "↓>25%"),
    ("COc1cc(C2(c3ccc(OC(F)F)c(C)c3)N=C(N)N(C)C2=O)ccn1 (centres unmarked) [FAH-48]", "↓≈10%"),
    ("COCc1cccc(C2(c3ccc(OC(F)F)c(C)c3)N=C(N)N(C)C2=O)c1 (centres unmarked) [FAH-44]", "↓>30%"),
    ("COCc1cc(C2(c3ccc(OC(F)F)c(C)c3)N=C(N)N(C)C2=O)ccn1 (centres unmarked) [FAH-53]", "↓<10%"),
]

Consider now this further molecule.
Query: // returns reported Abeta 1-42 for input Cc1cccc(C2(c3ccc(OC(F)F)c(C)c3)N=C(N)N(C)C2=O)c1 (centres unmarked) [FAH-27]
Response: ↓>40%
